Origin of values: patent US11267811B2

Biological target: His-tagged recombinant human Gal-3 (hGal-3) (Homo sapiens (Human))
Test: Gal-3 HTRF assay (His-tagged hGal-3 binding to B-ASF)
Details: HTRF, hGal-3 15 nM, B-ASF 15 nM; read-out: hGal-3 IC50
Measurement Label: pIC50
Just the number, please; pIC50 means minus log10 of the concentration in mol/L.

CNS(=O)(=O)Cc1ccc(-n2cnnc2[C@@H]2O[C@H](CO)[C@H](O)[C@H](n3cc(-c4cc(F)c(F)c(F)c4)nn3)[C@H]2O)cc1
6.59
CO[C@@H]1[C@@H](n2cc(-c3cc(F)c(F)c(F)c3)nn2)[C@@H](O)[C@@H](CO)O[C@H]1c1ncnn1-c1cccc(Cl)c1 [Example 189]
7.05

# next compound below
Incoming: I am curious: what pIC50 value has been reported for "COc1ccc(-n2cnnc2[C@@H]2O[C@H](CO)[C@H](O)[C@H](n3cc(-c4cc(F)c(F)c(F)c4)nn3)[C@H]2O)cc1OC" ?
Outgoing: 6.77

###

Target: His-tagged recombinant human Gal-3 (hGal-3) (Homo sapiens (Human), UniProt P17931)
Sequence (P17931 whole entry): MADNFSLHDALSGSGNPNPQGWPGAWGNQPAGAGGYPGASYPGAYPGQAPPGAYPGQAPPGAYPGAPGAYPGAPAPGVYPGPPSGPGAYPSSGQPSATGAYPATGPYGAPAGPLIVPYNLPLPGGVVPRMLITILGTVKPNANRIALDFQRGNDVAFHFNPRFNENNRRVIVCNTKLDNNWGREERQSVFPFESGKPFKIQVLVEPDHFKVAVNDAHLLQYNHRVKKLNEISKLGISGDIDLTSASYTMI
Test: Gal-3 HTRF assay (His-tagged hGal-3 binding to B-ASF)
Conditions: HTRF, hGal-3 15 nM, B-ASF 15 nM; read-out: hGal-3 IC50
Consider the cut-off 600 nM. If the recorded IC50 is strictly smaller, the label is t; if not, the label is f.

Cc1nc([C@@H]2O[C@H](CO)[C@H](O)[C@H](n3cc(-c4cc(F)c(F)c(F)c4)nn3)[C@H]2O)n(-c2nc3ccnn3cc2F)n1
f
Cc1nc([C@@H]2O[C@H](CO)[C@H](O)[C@H](n3cc(-c4cc(F)c(F)c(F)c4)nn3)[C@H]2O)n(-c2ccc(Cl)cc2C)n1
f

Incoming: Please let me know if "Cc1nc([C@H]2C[C@@H](n3cc(-c4cc(F)c(F)c(F)c4)nn3)[C@@H](O)[C@@H](CO)O2)n(-c2ccc3ncsc3c2)n1" shows IC50 below 600 nM.
Outgoing: t

Incoming: Decide: IC50 of "OC[C@H]1O[C@@H](c2ncnn2-c2ccncc2)[C@H](O)[C@@H](n2cc(-c3cc(F)c(F)c(F)c3)nn2)[C@H]1O" strictly below 600 nM?
Outgoing: t

Incoming: Lab log: compare recorded IC50 with 600 nM; is it strictly lower for "O=C(O)CO[C@@H]1[C@@H](n2cc(-c3cc(F)c(F)c(F)c3)nn2)[C@@H](O)[C@@H](CO)O[C@H]1c1ncnn1-c1cccc(Cl)c1" ?
Outgoing: t

###

Molecular target: His-tagged recombinant human Gal-3 (hGal-3) (Homo sapiens (Human), UniProt P17931)
Assay: Gal-3 HTRF assay (His-tagged hGal-3 binding to B-ASF)
Details: read-out: hGal3 IC50
Measurement Label: IC50 (nM)
Field format: number, assumed nM, no unit text.

Examples with answers:
Cc1nc2ccc(-n3ncnc3[C@@H]3O[C@H](CO)[C@H](O)[C@H](n4cc(-c5cc(F)cc(Cl)c5)nn4)[C@H]3O)cc2s1 [Example 240]
160
Cc1nc2ccc(-n3ncnc3[C@@H]3O[C@H](CO)[C@H](O)[C@H](n4cc(-c5ccc(N(C)S(C)(=O)=O)c(F)c5)nn4)[C@H]3O)cc2s1 [Example 208]
3820
Cc1nc2ccc(-n3ncnc3[C@@H]3O[C@H](CO)[C@H](O)[C@H](n4cc(-c5ccc(Br)cc5)nn4)[C@H]3O)cc2s1 [Example 225]
210
Cc1nc2ccc(-n3ncnc3[C@@H]3O[C@H](CO)[C@H](O)[C@H](n4cc(-c5cccc(F)c5)nn4)[C@H]3O)cc2s1 [Example 213]
120
N#Cc1ccc(Cl)cc1-n1cnnc1[C@@H]1O[C@H](CO)[C@H](O)[C@H](n2cc(-c3cc(F)c(Cl)c(F)c3)nn2)[C@H]1O [Example 312]
1600
Cc1nc([C@@H]2O[C@H](CO)[C@H](O)[C@H](n3cc(-c4ccc(Cl)c(F)c4)nn3)[C@H]2O)n(-c2ccc3ncccc3c2)n1 [Example 253]
80

Incoming: Would you mind telling me what IC50 value was observed for Cc1nc2ccc(-n3cnnc3[C@@H]3O[C@H](CO)[C@H](O)[C@H](n4cc(-c5cc(F)c(Cl)c(F)c5)nn4)[C@H]3O)cc2s1 [Example 302] ?
Outgoing: 28

Incoming: // lookup IC50 for OC[C@H]1O[C@@H](c2nncn2-c2cc(Cl)ccc2C(F)(F)F)[C@H](O)[C@@H](n2cc(-c3ccc(Cl)c(F)c3)nn2)[C@H]1O [Example 309]
Outgoing: 20

###

Molecular target: His-tagged recombinant human Gal-3 (hGal-3) (Homo sapiens (Human), UniProt P17931)
Assay: Gal-3 HTRF assay (His-tagged hGal-3 binding to B-ASF)
Details: read-out: hGal IC50
Measurement Label: log10(IC50) (log10 of the value in nM)
A difference of one corresponds to tenfold IC50; all values are log10 with IC50 in nM.

Solved entries (count: 4):
Cc1nc([C@@H]2O[C@H](CO)[C@H](O)[C@H](n3cc(-c4ccc(Br)c(F)c4)nn3)[C@H]2O)n(-c2ccc3ncsc3c2)n1
1.34
Cc1nc([C@@H]2O[C@H](CO)[C@H](O)[C@H](n3cc(-c4ccc5ncsc5c4)nn3)[C@H]2O)n(-c2cc(Cl)ccc2C(F)(F)F)n1
2.46
Cc1nc([C@@H]2O[C@H](CO)[C@H](O)[C@H](n3cc(-c4ccc(Cl)c(F)c4F)nn3)[C@H]2O)n(-c2cc(Cl)ccc2Cl)n1
1.04
Cc1nc([C@@H]2O[C@H](CO)[C@H](O)[C@H](n3cc(-c4cc(F)c(Cl)c(F)c4)nn3)[C@H]2O)n(-c2cc(CC(F)(F)F)ccc2Cl)n1
2.10

Incoming: Quick one: log10(IC50) of "Cc1nc([C@@H]2O[C@H](CO)[C@H](O)[C@H](n3cc(-c4cc(F)c(Br)c(F)c4)nn3)[C@H]2O)n(-c2cc3sc(C)nc3cc2C(F)(F)F)n1" ?
Outgoing: 2.01

Incoming: log10(IC50) lookup needed for "Cc1nc([C@@H]2O[C@H](CO)[C@H](O)[C@H](n3cc(-c4cc(F)c(F)c(F)c4)nn3)[C@H]2O)n(-c2ccc3nc(C(F)(F)F)sc3c2)n1" , thanks.
Outgoing: 2.70

Incoming: I am curious: what log10(IC50) value has been reported for "Cc1nc([C@@H]2O[C@H](CO)[C@H](O)[C@H](n3cc(-c4ccc(Cl)c(F)c4)nn3)[C@H]2O)n(-c2cc(Cl)cc(F)c2Cl)n1" ?
Outgoing: 1.67

Incoming: Field request: log10(IC50) | item: "Cc1nc([C@@H]2O[C@H](CO)[C@H](O)[C@H](n3cc(-c4cc(F)c(Cl)c(F)c4)nn3)[C@H]2O)n(-c2cc(Cl)cc3ncccc23)n1"
Outgoing: 1.71

Incoming: Return reported log10(IC50); argument: "Cc1nc([C@@H]2O[C@H](CO)[C@H](O)[C@H](n3cc(-c4ccc5scnc5c4)nn3)[C@H]2O)n(-c2cc(Cl)ccc2C(F)(F)F)n1"
Outgoing: 1.94

Incoming: May I ask what log10(IC50) has been recorded for "Cc1nc([C@@H]2O[C@H](CO)[C@H](O)[C@H](n3cc(-c4cc(F)c5ccccc5c4)nn3)[C@H]2O)n(-c2ccc3ncsc3c2)n1" ?
Outgoing: 1.18

###

The entries below are paired with their reported pIC50.
Target: His-tagged recombinant human Gal-3 (hGal-3) (Homo sapiens (Human), UniProt P17931)
Test: Gal-3 HTRF assay (His-tagged hGal-3 binding to B-ASF);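 further: compounds preincubated 30 min with hGal-3, then 1 h with B-ASF, detection via terbium anti-His antibody and streptavidin d2. Control with B-ASF counts as full signal, omitting B-ASF as background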
Settings: HTRF, hGal-3 15 nM, B-ASF 15 nM; read-out: hGal-3 IC50
Lab note — pIC50 values are minus log10 of concentrations in M.

Consider the reported pIC50 for these molecules:
Cc1nc2ccc(-n3c(C)nnc3[C@H]3C[C@@H](n4cc(-c5cc(F)c(F)c(F)c5)nn4)[C@@H](O)[C@@H](CO)O3)cc2s1
7.15
OC[C@H]1O[C@@H](c2nncn2Cc2nc3ccccc3s2)[C@H](O)[C@@H](n2cc(-c3cc(F)c(F)c(F)c3)nn2)[C@H]1O
6.49
OC[C@H]1O[C@@H](c2nncn2-c2cccc(OCc3ccccc3)c2)[C@H](O)[C@@H](n2cc(-c3cc(F)c(F)c(F)c3)nn2)[C@H]1O
6.43
COc1ccc(Cl)cc1-n1nc(C)nc1[C@H]1C[C@@H](n2cc(-c3cc(F)c(F)c(F)c3)nn2)[C@@H](O)[C@@H](CO)O1
6.80
OC[C@H]1O[C@@H](n2nncc2-c2ccc3c(c2)OCO3)[C@H](O)[C@@H](n2cc(-c3cc(F)c(F)c(F)c3)nn2)[C@H]1O
6.41

Incoming: # query: pIC50 | item "Cn1ncc(-c2cccc(Cl)c2)c1[C@@H]1O[C@H](CO)[C@H](O)[C@H](n2cc(-c3cc(F)c(F)c(F)c3)nn2)[C@H]1O" | system: His-tagged recombinant human Gal-3 (hGal-3) (Homo sapiens (Human), UniProt P17931)
Outgoing: 5.00

Incoming: Enter reported pIC50 observed with His-tagged recombinant human Gal-3 (hGal-3) (Homo sapiens (Human), UniProt P17931) for "O=C1CCc2cc(-n3cnnc3[C@@H]3O[C@H](CO)[C@H](O)[C@H](n4cc(-c5cc(F)c(F)c(F)c5)nn4)[C@H]3O)ccc2N1"
Outgoing: 6.59
